# TARGET_ENTITY: Protein kinase C alpha type (Homo sapiens) (UniProt P17252)
# CONDITION_INFO: at 10 µM
Exercise: state measured residual activity for each of the molecules provided.
Return type: number; implicit unit %.

Prompt line: Which residual activity value belongs to Oc1c2ccccc2c2c3c(cccc13)N=N2 ?
Response line: 73

Prompt line: Which residual activity value belongs to O=Nc1c(-c2c(O)[nH]c3ccccc23)[nH]c2ccccc12 ?
Response line: 86

Prompt line: Which residual activity value belongs to Cc1ccc(S(=O)(=O)/C=C/C#N)cc1 ?
Response line: 93

Prompt line: Which residual activity value belongs to CN(C)c1ccc(/C=C2\C(=O)Nc3ccccc32)cc1 ?
Response line: 101

Prompt line: Which residual activity value belongs to O=C1NC(=O)c2c1c1c3ccccc3[nH]c1c1[nH]c3cc(Br)ccc3c21 ?
Response line: 103

Prompt line: Which residual activity value belongs to CC[n+]1c(/C=C/N(C)c2ccccc2)n(-c2ccccc2)c2ccc(-c3nc4ccccc4s3)cc21 ?
Response line: 103

Prompt line: Which residual activity value belongs to COc1cc2ncnc(Nc3ccc(Oc4ccccc4)cc3)c2cc1OC ?
Response line: 96

Prompt line: Which residual activity value belongs to O=[N+]([O-])c1ccc(-c2nc(-c3ccc(F)cc3)c(-c3ccncc3)[nH]2)cc1 ?
Response line: 99

Prompt line: Which residual activity value belongs to C[C@@H](N)[C@H]1CC[C@H](C(=O)Nc2ccncc2)CC1 ?
Response line: 84

Prompt line: Which residual activity value belongs to O=C(O)c1ccc2c3c1cccc3c(=O)n1c3ccccc3nc21 ?
Response line: 98

Prompt line: Which residual activity value belongs to COc1ccc(OC)c2c(=S)c3ccccc3[nH]c12 ?
Response line: 101

Prompt line: Which residual activity value belongs to Cc1cc(Nc2nc(-c3ccccc3)nc3ccccc23)n[nH]1 ?
Response line: 63

Prompt line: Which residual activity value belongs to Nc1nc(Nc2ccc(S(N)(=O)=O)cc2)nn1C(=S)Nc1c(F)cccc1F ?
Response line: 18

Prompt line: Which residual activity value belongs to COc1cc2ncnc(Nc3ccc(NC(=O)c4ccccc4)cc3)c2cc1OC ?
Response line: 107

Prompt line: Which residual activity value belongs to CC(=O)c1ccc(N2CCOCC2)cc1O ?
Response line: 102

Prompt line: Which residual activity value belongs to Cc1cncc2cccc(S(=O)(=O)N3CCCN(C(=O)CN)C[C@H]3C)c12 ?
Response line: 85

Prompt line: Which residual activity value belongs to CO[C@@H]1[C@H](N(C)C(=O)c2ccccc2)C[C@H]2O[C@]1(C)n1c3ccccc3c3c4c(c5c6ccccc6n2c5c31)C(=O)NC4 ?
Response line: 14

Prompt line: Which residual activity value belongs to Cn1cc(/C=C2\C(=O)Nc3ccc(S(N)(=O)=O)cc32)c2ccccc21 ?
Response line: 104

Prompt line: Which residual activity value belongs to CNc1cc2c(Nc3cccc(Br)c3)ncnc2cn1 ?
Response line: 95

Prompt line: Which residual activity value belongs to O=C1NC(=O)/C(=C/c2ccc3c(c2)OC(F)(F)O3)S1 ?
Response line: 102

Prompt line: Which residual activity value belongs to O=c1cc(-c2cccc3c2Sc2ccccc2S3)oc(N2CCOCC2)c1 ?
Response line: 86

Prompt line: Which residual activity value belongs to Oc1n[nH]c2nnc(-c3c(-c4ccccc4)nn4ccccc34)cc12 ?
Response line: 92

====

# TARGET_ENTITY: Dual specificity mitogen-activated protein kinase kinase 7 (Homo sapiens)
# CONDITION_INFO: at 1 µM
Note to self: class = bucket of residual activity, per bottom = under 80%, middle = from 80% up to 90%, top = 90% and over

Prompt line: Entry COc1ccc(CNc2nc(N(CCO)CCO)nc3c2ncn3C(C)C)cc1 belongs to which category?
Response line: middle

Prompt line: Entry COc1cc2ncnc(N3CCN(C(=O)Nc4ccc(Oc5ccccc5)cc4)CC3)c2cc1OC belongs to which category?
Response line: top

Prompt line: Entry Nc1nc(Nc2ccc(S(N)(=O)=O)cc2)nn1C(=S)Nc1c(F)cccc1F belongs to which category?
Response line: bottom

Prompt line: Entry C[C@@H](N)[C@H]1CC[C@H](C(=O)Nc2ccncc2)CC1 belongs to which category?
Response line: top

Prompt line: Entry c1ccc2c(-c3ccncc3)c[nH]c2c1 belongs to which category?
Response line: top

Prompt line: Entry O=C(Nc1cccc(Nc2nccc(Nc3cccc(C(F)(F)F)c3)n2)c1)C1CC1 belongs to which category?
Response line: middle

Prompt line: Entry c1ccc(-c2n[nH]c3c2oc2ccccc23)cc1 belongs to which category?
Response line: middle

Prompt line: Entry O=C(O)c1ccc2c3c1cccc3c(=O)n1c3ccccc3nc21 belongs to which category?
Response line: middle

Prompt line: Entry Cc1cccc(-c2[nH]c(C(C)(C)C)nc2-c2ccc3c(c2)OCO3)n1 belongs to which category?
Response line: top

Prompt line: Entry Oc1n[nH]c2nnc(-c3c(-c4ccccc4)nn4ccccc34)cc12 belongs to which category?
Response line: top

Prompt line: Entry Nc1ccc2ncnc(NCCc3ccc(Oc4ccccc4)cc3)c2c1 belongs to which category?
Response line: bottom

====

Exercise: state measured residual activity for each of the compounds provided.
# TARGET_ENTITY: Death-associated protein kinase 1 (Homo sapiens)
# CONDITION_INFO: at 10 µM
Return type: number; implicit unit %.

Prompt line: Look up residual activity with Death-associated protein kinase 1 (Homo sapiens) for this compound: COc1ccc(CNc2nc(N(CCO)CCO)nc3c2ncn3C(C)C)cc1
Response line: 88

Prompt line: Look up residual activity with Death-associated protein kinase 1 (Homo sapiens) for this compound: CO[C@H]1C[C@@H]2CC[C@@H](C)[C@@](O)(O2)C(=O)C(=O)N2CCCC[C@H]2C(=O)O[C@H]([C@H](C)C[C@@H]2CC[C@@H](O)[C@H](OC)C2)CC(=O)[C@H](C)/C=C(\C)[C@@H](O)[C@@H](OC)C(=O)[C@H](C)C[C@H](C)/C=C/C=C/C=C/1C
Response line: 108

Prompt line: Look up residual activity with Death-associated protein kinase 1 (Homo sapiens) for this compound: CN(C)CCCn1cc(C2=C(c3c[nH]c4ccccc34)C(=O)NC2=O)c2ccccc21
Response line: 75

Prompt line: Look up residual activity with Death-associated protein kinase 1 (Homo sapiens) for this compound: Cc1nc(-c2ccccc2)c(-c2ccncc2)o1
Response line: 95

====

# TARGET_ENTITY: Proto-oncogene tyrosine-protein kinase Src (Homo sapiens)
# CONDITION_INFO: at 1 µM
READOUT_KIND: residual activity (%)
Return type: number; implicit unit %.

Prompt line: Which residual activity value belongs to NC(=O)c1ccc2[nH]c(-c3ccc(Oc4ccc(Cl)cc4)cc3)nc2c1 ?
Response line: 108

Prompt line: Which residual activity value belongs to N#Cc1cnc2cnc(NCc3cccnc3)cc2c1Nc1ccc(F)c(Cl)c1 ?
Response line: 56

Prompt line: Which residual activity value belongs to O=Nc1c(-c2c(O)[nH]c3ccccc23)[nH]c2ccccc12 ?
Response line: 35

Prompt line: Which residual activity value belongs to Cc1nc2cc3nc(-c4cccs4)cnc3cc2n1C ?
Response line: 78

Prompt line: Which residual activity value belongs to CCN(CC)CCCCN1c2ccccc2Oc2ccc(Cl)cc21 ?
Response line: 81

Prompt line: Which residual activity value belongs to COc1ccc(OC)c2c(=S)c3ccccc3[nH]c12 ?
Response line: 118

Prompt line: Which residual activity value belongs to COc1cc2ncnc(Nc3ccc(O)c(Br)c3)c2cc1OC ?
Response line: 54

Prompt line: Which residual activity value belongs to O=C1Nc2ccccc2/C1=C1/Nc2ccccc2/C1=N\OCCC(O)CO (stereo unspecified) ?
Response line: 20

Prompt line: Which residual activity value belongs to Cc1ccc(S(=O)(=O)/C=C/C#N)cc1 ?
Response line: 114

Prompt line: Which residual activity value belongs to CC#CC(=O)Nc1cc2c(Nc3ccc(F)c(Cl)c3)ncnc2cn1 ?
Response line: 89

Prompt line: Which residual activity value belongs to CO[C@@H]1[C@H](N(C)C(=O)c2ccccc2)C[C@H]2O[C@]1(C)n1c3ccccc3c3c4c(c5c6ccccc6n2c5c31)C(=O)NC4 ?
Response line: 40

====

Exercise: state measured residual activity for each of the molecules provided.
# TARGET_ENTITY: Serine/threonine-protein kinase Nek7 (Homo sapiens) (UniProt Q8TDX7)
# Sequence (Q8TDX7 whole entry, looked up): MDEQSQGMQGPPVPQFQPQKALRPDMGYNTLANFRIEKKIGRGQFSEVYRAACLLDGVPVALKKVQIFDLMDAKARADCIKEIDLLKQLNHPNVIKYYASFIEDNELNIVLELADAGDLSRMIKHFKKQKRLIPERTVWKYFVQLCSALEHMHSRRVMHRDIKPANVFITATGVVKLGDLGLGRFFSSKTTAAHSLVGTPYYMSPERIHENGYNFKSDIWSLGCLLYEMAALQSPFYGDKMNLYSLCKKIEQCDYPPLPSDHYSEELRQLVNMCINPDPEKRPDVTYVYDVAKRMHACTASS
# CONDITION_INFO: at 10 µM
# Description: Millipore: Percentage of residual kinase activity of NEK7 at 10uM relative to control. Control inhibitor: Phosphoric acid* at 0.3uM. Buffer: 8 mM MOPS pH 7.0, 0.2 mM EDTA
Return type: number; implicit unit %.

Prompt line: Look up residual activity with Serine/threonine-protein kinase Nek7 (Homo sapiens) (UniProt Q8TDX7) for this molecule: O=Nc1c(-c2c(O)[nH]c3ccccc23)[nH]c2ccccc12
Response line: 102

Prompt line: Look up residual activity with Serine/threonine-protein kinase Nek7 (Homo sapiens) (UniProt Q8TDX7) for this molecule: Oc1ccc(-c2nc(-c3ccc(F)cc3)c(-c3ccncc3)[nH]2)cc1
Response line: 103

Prompt line: Look up residual activity with Serine/threonine-protein kinase Nek7 (Homo sapiens) (UniProt Q8TDX7) for this molecule: CO[C@H]1[C@@H](OC)C[C@H](C)[C@@H](OC)C2=CC(=O)C=C(NC(=O)/C(C)=C/C=C/[C@H](OC)[C@@H](OC(N)=O)/C(C)=C/[C@@H]1C)C2=O
Response line: 76

Prompt line: Look up residual activity with Serine/threonine-protein kinase Nek7 (Homo sapiens) (UniProt Q8TDX7) for this molecule: CC(=O)O/N=C1\C(=C2\C(=O)Nc3cc(Br)ccc32)Nc2ccccc21
Response line: 111

Prompt line: Look up residual activity with Serine/threonine-protein kinase Nek7 (Homo sapiens) (UniProt Q8TDX7) for this molecule: COc1ccc(S(=O)(=O)N(CCO)c2ccccc2CN(C)C/C=C/c2ccc(Cl)cc2)cc1
Response line: 93

Prompt line: Look up residual activity with Serine/threonine-protein kinase Nek7 (Homo sapiens) (UniProt Q8TDX7) for this molecule: CCOc1cc2ncnc(Nc3cccc(Br)c3)c2cc1OCC
Response line: 101

Prompt line: Look up residual activity with Serine/threonine-protein kinase Nek7 (Homo sapiens) (UniProt Q8TDX7) for this molecule: CC(C)n1cnc2c(NCc3ccccc3)nc(NCCCO)nc21
Response line: 95

Prompt line: Look up residual activity with Serine/threonine-protein kinase Nek7 (Homo sapiens) (UniProt Q8TDX7) for this molecule: COc1ccc(CNc2nc(N(CCO)CCO)nc3c2ncn3C(C)C)cc1
Response line: 86

Prompt line: Look up residual activity with Serine/threonine-protein kinase Nek7 (Homo sapiens) (UniProt Q8TDX7) for this molecule: COc1cc2ncnc(Nc3ccc(NC(=O)c4ccccc4)cc3)c2cc1OC
Response line: 86

Prompt line: Look up residual activity with Serine/threonine-protein kinase Nek7 (Homo sapiens) (UniProt Q8TDX7) for this molecule: COc1cc2ncnc(Nc3ccc(O)c(Br)c3)c2cc1OC
Response line: 96

Prompt line: Look up residual activity with Serine/threonine-protein kinase Nek7 (Homo sapiens) (UniProt Q8TDX7) for this molecule: CCC(=O)Nc1ccc2ncnc(Nc3cccc(Br)c3)c2c1
Response line: 114

Prompt line: Look up residual activity with Serine/threonine-protein kinase Nek7 (Homo sapiens) (UniProt Q8TDX7) for this molecule: O=C(Nc1cccc(Nc2cc(Nc3cccc(C(F)(F)F)c3)ncn2)c1)C1CC1
Response line: 93

Prompt line: Look up residual activity with Serine/threonine-protein kinase Nek7 (Homo sapiens) (UniProt Q8TDX7) for this molecule: NC(=O)c1ccc2[nH]c(-c3ccc(Oc4ccc(Cl)cc4)cc3)nc2c1
Response line: 104

Prompt line: Look up residual activity with Serine/threonine-protein kinase Nek7 (Homo sapiens) (UniProt Q8TDX7) for this molecule: N#C/C(=C(\N)Sc1ccc(N)cc1)c1ccccc1C(F)(F)F
Response line: 90

Prompt line: Look up residual activity with Serine/threonine-protein kinase Nek7 (Homo sapiens) (UniProt Q8TDX7) for this molecule: O=C(Nc1cccc(Nc2nccc(Nc3cccc(C(F)(F)F)c3)n2)c1)C1CC1
Response line: 104

Prompt line: Look up residual activity with Serine/threonine-protein kinase Nek7 (Homo sapiens) (UniProt Q8TDX7) for this molecule: Cn1cc(/C=C2\C(=O)Nc3ccc(S(N)(=O)=O)cc32)c2ccccc21
Response line: 89
